System: KASUMI-2
ASSAY METHOD TEXT: selective drug sensitivity score (sDSS, relative to normal bone marrow) (sDSS (score)); higher = more potent and effective on the cell line relative to normal bone marrow cells;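 also: ALL cell lines in 384-well plates, five doses spanning 10,000-fold, each plate scaled between vehicle and 100 µmol/L benzalkonium chloride controls, sDSS an adapted area-under-curve metric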
CONDITION SUMMARY: 72 h
Assignment: determine reported selective drug sensitivity score for the given compounds.
Enter a number only.

## Input Bench note: what selective drug sensitivity score did O=c1[nH]cc(F)c(=O)[nH]1 [Fluorouracil] (top concentration 10000 nM) show?
## Output 1.56

## Input Moving on to the next compound: COc1cccc2c1C(=O)c1c(O)c3c(c(O)c1C2=O)C[C@@](O)(C(=O)CO)C[C@@H]3O[C@H]1C[C@H](N)[C@H](O)[C@H](C)O1 [Doxorubicin] (top concentration 1000 nM)
## Output 7.68

## Input Moving on to the next compound: O=C1CN2Cc3c(ccc(Cl)c3Cl)N=C2N1 [Anagrelide] (top concentration 10000 nM)
## Output 0

## Input Moving on to the next compound: C=CCc1cccc(/C=N/NC(=O)CN2CCN(Cc3ccccc3)CC2)c1O [PAC-1] (top concentration 10000 nM)
## Output -0.72

## Input Moving on to the next compound: CC[C@]12C=CCN3CC[C@@]4(c5cc([C@@]6(C(=O)OC)C[C@@H]7C[C@@H](C(C)(F)F)CN(Cc8c6[nH]c6ccccc86)C7)c(OC)cc5N(C)[C@H]4[C@@](O)(C(=O)OC)[C@@H]1OC(C)=O)[C@@H]32 [Vinflunine] (top concentration 1000 nM)
## Output 5.68

## Input Moving on to the next compound: CCn1c(-c2nonc2N)nc2cnc(Oc3cccc(NC(=O)c4ccc(OCCN5CCOCC5)cc4)c3)cc21 (top concentration 10000 nM)
## Output 14.3

====

Test system: KASUMI-9
ASSAY METHOD TEXT: selective drug sensitivity score (sDSS, relative to normal bone marrow) (sDSS (score)); higher = more potent and effective on the cell line relative to normal bone marrow cells
CONDITION SUMMARY: 72 h
Use TRUE when the recorded selective drug sensitivity score is no lower than 1; use FALSE when it is lower.

## Input Please check the record C[C@]12CC[C@@H]3c4ccc(O)cc4C[C@@H](CCCCCCCCC[S+]([O-])CCCC(F)(F)C(F)(F)F)[C@H]3[C@@H]1CC[C@@H]2O (stereo partly drawn) [Fulvestrant] (top concentration 1000 nM) and state if its selective drug sensitivity score is at or above 1.
## Output FALSE

## Input Moving on to the next compound: N#CCNC(=O)c1ccc(-c2ccnc(Nc3ccc(N4CCOCC4)cc3)n2)cc1 [Momelotinib] (top concentration 10000 nM)
## Output FALSE

## Input Moving on to the next compound: Cn1ncc(Cl)c1-c1cc(C(=O)N[C@H](CN)Cc2cccc(F)c2)sc1Cl [Afuresertib] (top concentration 1000 nM)
## Output TRUE

## Input Moving on to the next compound: COCCOc1cnc2ccn([C@H](C)c3nnc4c(F)cc(-c5cnn(C)c5)cn34)c(=O)c2c1 [AMG-337] (top concentration 10000 nM)
## Output FALSE

## Input Moving on to the next compound: Cc1ccc(C(=O)Nc2ccc(Oc3cc4cnn(C)c4cc3-c3cn[nH]c3)c(F)c2)c(=O)n1-c1ccc(F)cc1 [Merestinib] (top concentration 1000 nM)
## Output FALSE

## Input Moving on to the next compound: CN1CCC(COc2cnc(-c3cccc(Cn4nc(-c5cccc(C#N)c5)ccc4=O)c3)nc2)CC1 [Tepotinib] (top concentration 1000 nM)
## Output FALSE

## Input Moving on to the next compound: Cn1cc(C[C@@H](N)C(=O)O)c2ccccc21 [1-methyl-D-tryptophan] (top concentration 5000 nM)
## Output FALSE

## Input Moving on to the next compound: N#CC(c1ccnc(OCc2ccc(CN3CCOCC3)cc2)n1)c1nc2ccccc2s1 (stereo not drawn) [Bentamapimod] (top concentration 10000 nM)
## Output TRUE

## Input Moving on to the next compound: C=CC(=O)N1CCC[C@@H](n2nc(-c3ccc(Oc4ccccc4)cc3)c3c(N)ncnc32)C1 [Ibrutinib] (top concentration 1000 nM)
## Output TRUE

## Input Moving on to the next compound: CC(C)C(=O)Nc1ccc([N+](=O)[O-])c(C(F)(F)F)c1 [Flutamide] (top concentration 10000 nM)
## Output TRUE

## Input Moving on to the next compound: CC(C)n1cnc2c(NCCc3ccc(O)cc3)nc(-c3csc4ccccc34)nc21 [StemRegenin_1] (top concentration 10000 nM)
## Output FALSE

## Input Moving on to the next compound: Nc1nc(N)c2nc(-c3cccc(O)c3)c(-c3cccc(O)c3)nc2n1 [TG100-115] (top concentration 10000 nM)
## Output TRUE

## Input Moving on to the next compound: CC[C@H](Nc1ncnc2[nH]cnc12)c1nc2cccc(F)c2c(=O)n1-c1ccccc1 [Idelalisib] (top concentration 10000 nM)
## Output TRUE
